Attribution: patent US20230265151A1

Form field: cAMP Emax (one value per entry).
Target: T1, human glucose-dependent insulinotropic polypeptide (GIP) receptor (human, UniProt P48546 22-466)
T1 sequence (looked up): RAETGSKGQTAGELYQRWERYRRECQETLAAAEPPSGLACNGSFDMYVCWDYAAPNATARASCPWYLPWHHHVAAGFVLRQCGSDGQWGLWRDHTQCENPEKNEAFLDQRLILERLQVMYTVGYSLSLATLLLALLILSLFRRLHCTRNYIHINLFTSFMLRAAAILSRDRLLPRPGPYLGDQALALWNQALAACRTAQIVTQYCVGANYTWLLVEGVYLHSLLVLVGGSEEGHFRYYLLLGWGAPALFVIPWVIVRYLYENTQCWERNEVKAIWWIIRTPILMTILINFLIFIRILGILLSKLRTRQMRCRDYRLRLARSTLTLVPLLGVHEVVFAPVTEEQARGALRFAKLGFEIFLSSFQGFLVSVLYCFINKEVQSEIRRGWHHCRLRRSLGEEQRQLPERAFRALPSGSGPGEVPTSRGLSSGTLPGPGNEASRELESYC
Assay: cell-based or functional assay
*1 amine or outer side, *2 acyl side, *3 side chain or, on linkers, in order; H or OH if unused. Where no end group is shown, it is not given here. Side-chain parts run from the residue outwards. [ ]: non-standard residue; d: D form. The star is where a group is joined. αMePhe(2-F) = C[C@](N)(Cc1ccccc1F)C(=O)O; γGlu = O=C(O)[C@H](CCC(=O)[*:2])N[*:1]; C14 diacid = O=C(O)CCCCCCCCCCCCC(=O)*; εLys = N[C@@H](CCCCN[*:1])C(=O)[*:2]; αMeY = C[C@](N)(Cc1ccc(O)cc1)C(=O)O; αMeL = CC(C)C[C@](C)(N)C(=O)O; Orn = NCCC[C@H](N)C(=O)O; AEEA = NCCOCCOCC(=O)O; Aib = CC(C)(N)C(=O)O
Respond numerically; units are % and should not be typed.

Some solved entries appear below for comparison.
binder	unit_label	cAMP Emax
YXEGTXTSDXXIXLDXKAQXEFIKXLIEGGPSSGAPPPS (Aib2, αMeF(2F)6, 4Pal10, αMeS11, αMeL13, Orn16, K17(Z), Aib20, K24(Z), αMeY25, C-terminal NH2; Z = AEEA2-(γ-Glu)-CO-(CH2)12-CO2H) [Example 214]	%	93.7
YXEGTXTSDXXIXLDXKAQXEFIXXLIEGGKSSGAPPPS (Aib2, αMeF(2F)6, 4Pal10, Dap11, αMeL13, Orn16, K17(Z), Aib20, D-Glu24, αMeY25, K31(Z), C-terminal NH2; Z = AEEA2-(γ-Glu)-CO-(CH2)12-CO2H) [Example 199]	%	96.9
YXEGTXTSDXSIXLDXIAQXEFIKXLIEGGKSSGAPPPS (Aib2, αMeF(2F)6, 4Pal10, αMeL13, Orn16, Aib20, K24(Z), αMeY25, K31(Z), C-terminal NH2; Z = (εK)-(γ-Glu)-CO-(CH2)12-CO2H) [Example 197]	%	102
Y[Aib]EGT[αMePhe(2-F)]TSDV[Aib]I[αMeL]LD[Orn]K([AEEA-AEEA-εLys-C14 diacid])AQ[Aib]EFI[dE][αMeY]LIEGGK([AEEA-AEEA-εLys-C14 diacid])SSGAPPPS-NH2 [Example 163]	%	98.2
Y[Aib]EGT[αMePhe(2-F)]TSDV[Aib]I[αMeL]LD[Orn]K([εLys-εLys-γGlu-C14 diacid])AQ[Aib]EFIK([εLys-εLys-γGlu-C14 diacid])[αMeY]LIEGGPSSGAPPPS-NH2 [Example 168]	%	93
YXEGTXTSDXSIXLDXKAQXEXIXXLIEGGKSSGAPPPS (Aib2, αMeF6, 4Pal10, αMeL13, Orn16, K17(Z), Aib20, αMeF22, D-Glu24, αMeY25, K31(Z), C-terminal NH2; Z = AEEA2-(γ-Glu)-CO-(CH2)10-CH3) [Example 173]	%	87.8
Y[Aib]EGT[αMePhe(2-F)]TSDV[Aib]I[αMeL]LD[Orn]K([AEEA-AEEA-εLys-C14 diacid])AQ[Aib]EFIK([AEEA-AEEA-εLys-C14 diacid])[αMeY]LIEGGPSSGAPPPS-NH2 [Example 166]	%	97
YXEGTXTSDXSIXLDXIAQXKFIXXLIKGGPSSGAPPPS (Aib2, αMeF(2F)6, OMeY10, αMeL13, Orn16, Aib20, K21(Z), D-Glu24, αMeY25, K28(Z), C-terminal NH2; Z = AEEA2-(γ-Glu)-CO-(CH2)12-CO2H) [Example 263]	%	88.6
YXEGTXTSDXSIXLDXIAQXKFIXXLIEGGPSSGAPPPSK (Aib2, αMeF(2F)6, OMeY10, αMeL13, Orn16, Aib20, K21(Z), D-Glu24, αMeY25, K40(Z), C-terminal NH2; Z = AEEA2-(γ-Glu)-CO-(CH2)12-CO2H) [Example 264]	%	114

Now examine the next entry.
[ask] cAMP Emax lookup needed for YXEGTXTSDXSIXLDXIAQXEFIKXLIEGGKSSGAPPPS (Aib2, αMeF(2F)6, 4Pal10, αMeL13, Orn16, Aib20, K24(Z), αMeY25, K31(Z), C-terminal NH2; Z = AEEA2-CO-(CH2)12-CO2H) [Example 193] , thanks.
[reply] 97.2
